system: DU-145 prostate; test: NCI tumour cell line growth inhibition, 48 h
quantity: TGI

[
  {
    "compound": "COc1ccc(N2CCN(CN3CCN(c4ccc(OC)cc4)C3)C2)cc1",
    "TGI": "> 100 µM"
  }
]

Here are 4 compounds. What values of TGI were reported for them?
1. CC(=O)/C(N=Nc1ccc(-n2c(C)nc3ccc(Br)cc3c2=O)cc1)=C(/C)O
2. CCOC(=O)c1ccc(NC(=O)O/N=C(/Cl)C(C)C)cc1
3. Nc1ccc(OCC(O)N2C(=O)c3ccccc3C2=O)cc1 (stereo unspecified)
4. COCOc1cc(OC)c(Br)cc1C/C(=N/O)C(=O)OC

> 100 µM
> 67.2 µM
> 100 µM
> 100 µM

Dear colleague, could you send me TGI for each of the items below? Thanks.
1. O=[N+]([O-])c1ccc(/C=N\Nc2ccc([N+](=O)[O-])cn2)cc1
2. CC1(C)C(=O)N(O)C(C)(C)N1N=O
3. COc1cc(OC)cc(-n2c(N)c(-c3nc4ccccc4s3)c3ccc([N+](=O)[O-])cc3c2=O)c1
4. CSC1=C(C#N)C(=O)N(c2ccc(Cl)cc2)C(=O)C1C#N (stereo unspecified)
5. CCOC(=O)c1c(C)noc1/N=N/N(CCO)CCO
6. CCN(CC)CCSc1n[nH]c(-c2c[nH]c3nc(C)ccc3c2=O)n1

> 100 µM
> 10 µM
> 100 µM
> 100 µM
> 100 µM
> 100 µM

Value source: PubChem BioAssay (NCI)
